target: Neuronal acetylcholine receptor subunit alpha-7 (Homo sapiens, UniProt P36544); assay: Positive allosteric modulator activity at human alpha7 nAChR expressed in Flp-In-HEK293 cells co-expressing RIC-3 assessed as potentiation of PNU282987-induced calcium influx at 10 uM measured after 10 mins by FLIPR assay; format: cell-based; details: Flp-In-293
Sequence (P36544 whole entry): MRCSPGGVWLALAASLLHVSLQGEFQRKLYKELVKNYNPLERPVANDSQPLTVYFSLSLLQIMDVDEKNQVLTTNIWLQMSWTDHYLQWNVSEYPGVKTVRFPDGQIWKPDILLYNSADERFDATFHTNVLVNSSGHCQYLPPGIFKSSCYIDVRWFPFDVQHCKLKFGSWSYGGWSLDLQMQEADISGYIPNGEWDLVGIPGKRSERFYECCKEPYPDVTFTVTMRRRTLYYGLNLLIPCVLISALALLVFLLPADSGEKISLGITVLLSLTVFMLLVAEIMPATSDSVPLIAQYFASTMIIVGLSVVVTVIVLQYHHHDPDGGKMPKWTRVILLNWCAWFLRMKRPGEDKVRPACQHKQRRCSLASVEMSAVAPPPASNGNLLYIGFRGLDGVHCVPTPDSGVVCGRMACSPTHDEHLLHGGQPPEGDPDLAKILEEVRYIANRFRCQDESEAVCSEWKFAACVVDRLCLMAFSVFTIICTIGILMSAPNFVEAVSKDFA
quantity: Activity (%)

{"columns": ["compound", "unitsOfMeasure", "Activity"],
 "data": [
  ["Cc1ccc(CN2CCN(C(=O)C(=O)Nc3ccc4[nH]c(C)c(C)c4c3)CC2)cc1", "%", 10]
]}

I. Cc1ccc(CN2CCC(C(=O)NCc3ccc4c(ccn4C)c3)CC2)cc1
II. Cc1ccc(CN2CCN(C(=O)C(=O)Cc3ccc4c(ccn4C)c3)CC2)cc1
III. Cc1ccc(CC2CCN(C(=O)NC(=O)c3ccc4c(ccn4C)c3)CC2)cc1
IV. Cc1ccc(OC2CCN(C(=O)C(=O)Nc3ccc4c(ccn4C)c3)C2)cc1 (stereo not given)
query: Arrange these compounds by their Activity, starting with the largest number. Note for the reader: the ranking is given by listing the labels in the order requested.
result: III, IV, I, II

---

assay: Drug uptake in NMRI mouse brain at 10 mg/kg, ip measured after 1 hr by HPLC-MS/MS analysis; format: ADME, organism-based; settings: read-out: Ct
quantity: concentration at 1 h (nM)

A. Cc1ccc(CN2CCN(C(=O)C(=O)Nc3ccc4c(ccn4C)c3)CC2)cc1
B. Cc1ccc(OC2CCN(C(=O)C(=O)Nc3ccc4c(ccn4C)c3)CC2)cc1
C. Cc1ccc(Oc2ccc(C(=O)C(=O)Nc3ccc4c(ccn4C)c3)cn2)cc1
D. O=C(NCc1ccc2[nH]ccc2c1)N1CC(COc2ccc(C(F)(F)F)cc2)C1
query: Rank the 4 molecules shown above by concentration at 1 h, smallest number first. Note for the reader: the ranking is given by listing the labels in the order requested.
result: A, B, C, D
(A: 233 nM, B: 1290 nM, C: 1930 nM, D: 9920 nM)

---

assay: Plasma concentration in NMRI mouse at 0.1 mg/kg, ip measured after 1 hr by HPLC-MS/MS analysis; assay type: ADME, organism-based
quantity: concentration at 1 h (nM)
Form entry: value (nM) — number only.

Value of measured concentration at 1 h for the entry Cc1ccc(CN2CCN(C(=O)C(=O)Nc3ccc4c(ccn4C)c3)CC2)cc1 : 2.1

---

assay: Mutagenicity in Salmonella typhimurium TA98 in presence of rat liver S9 fraction by AMES test; type: toxicity, subcellular; settings: salmonella enterica subsp. enterica serovar typhimurium
quantity: Activity

// known answers, use as guide
{"columns": ["chemicalString", "Activity"],
 "data": [
  ["Cc1ccc(CN2CCN(C(=O)C(=O)Nc3cc4ccn(C)c4cc3F)CC2)cc1", "Toxic"],
  ["Cc1ccc(CN2CCN(C(=O)C(=O)Nc3ccc4c(c3)c(C)cn4C)CC2)cc1", "Toxic"],
  ["Cc1ccc(CN2CCN(C(=O)C(=O)Nc3ccc4[nH]c(C)c(C)c4c3)CC2)cc1", "Toxic"],
  ["Cc1ccc(CN2CCN(C(=O)C(=O)Nc3cc(F)c4[nH]ccc4c3)CC2)cc1", "Toxic"],
  ["Cc1ccc(CN2CCN(C(=O)C(=O)Nc3ccc4c(F)cn(C)c4c3)CC2)cc1", "Toxic"]
]}

Value of measured Activity for the entry O=C(NCc1ccc2[nH]ccc2c1)N1CC(COc2ccc(C(F)(F)F)cc2)C1 : Non-Toxic

Value of measured Activity for the entry Cc1ccc(CN2CCN(C(=O)C(=O)Nc3ccc4c(c3)c(F)cn4C)CC2)cc1 : Toxic

Value of measured Activity for the entry Cc1ccc(CN2CCN(C(=O)C(=O)Nc3ccc4c(ccn4C)c3)CC2)cc1 : Non-Toxic

Value of measured Activity for the entry Cc1ccc(CN2CCN(C(=O)C(=O)Nc3ccc4c(c3)c(Cl)cn4C)CC2)cc1 : Toxic

---

assay: Mutagenicity in Salmonella typhimurium TA100 in presence of rat liver S9 fraction by AMES test; assay type: toxicity, subcellular; details: salmonella enterica subsp. enterica serovar typhimurium
quantity: Activity

// known answers, use as guide
{"columns": ["chemicalString", "Activity"],
 "data": [
  ["Cc1ccc(CN2CCN(C(=O)C(=O)Nc3cc4ccn(C)c4cc3F)CC2)cc1", "Toxic"],
  ["Cc1ccc(CN2CCN(C(=O)C(=O)Nc3ccc4c(F)cn(C)c4c3)CC2)cc1", "Toxic"],
  ["Cc1ccc(CN2CCN(C(=O)C(=O)Nc3ccc4c(c3)c(F)cn4C)CC2)cc1", "Toxic"],
  ["Cc1ccc(CN2CCN(C(=O)C(=O)Nc3ccc4[nH]c(C)c(C)c4c3)CC2)cc1", "Toxic"],
  ["Cc1ccc(CN2CCN(C(=O)C(=O)Nc3cc(F)c4[nH]ccc4c3)CC2)cc1", "Toxic"]
]}

Value of measured Activity for the entry Cc1ccc(CN2CCN(C(=O)C(=O)Nc3ccc4c(c3)c(C)cn4C)CC2)cc1 : Toxic

Value of measured Activity for the entry Cc1ccc(CN2CCN(C(=O)C(=O)Nc3ccc4c(c3)c(Cl)cn4C)CC2)cc1 : Toxic

Value of measured Activity for the entry O=C(NCc1ccc2[nH]ccc2c1)N1CC(COc2ccc(C(F)(F)F)cc2)C1 : Non-Toxic

Value of measured Activity for the entry Cc1ccc(CN2CCN(C(=O)C(=O)Nc3ccc4c(ccn4C)c3)CC2)cc1 : Non-Toxic

---

test: Metabolic stability in human liver microsomes assessed as intrinsic clearance at 1 uM measured per mg protein upto 40 mins; type: ADME, Microsome; conditions: read-out: CLH
quantity: microsomal CLint at 1 µM (µL/min/mg)

I. Cc1ccc(CN2CCN(C(=O)C(=O)Nc3cnc4c(c3)c(F)cn4C)CC2)cc1
II. Cc1ccc(CN2CCN(C(=O)NCc3ccc4c(ccn4C)c3)CC2)cc1
III. Cc1ccc(CN2CCN(C(=O)C(=O)Nc3cnc4c(ccn4C)c3)CC2)cc1
IV. Cc1ccc(Oc2cnc(C(=O)C(=O)Nc3ccc4c(ccn4C)c3)cn2)cc1
V. Cc1ccc(Oc2ccc(C(=O)C(=O)Nc3ccc4c(ccn4C)c3)cn2)cc1
query: Arrange by microsomal CLint at 1 µM, high to low. Note for the reader: the ranking is given by listing the labels in the order requested.
result: IV, V, II, I, III
(IV: 90 µL/min/mg, V: 51 µL/min/mg, II: 24 µL/min/mg, I: 12 µL/min/mg, III: 0.3 µL/min/mg)

1. Cc1ccc(CN2CCN(C(=O)C(=O)Nc3ccc4c(c3)c(C)cn4C)CC2)cc1
2. Cc1ccc(CN2CCN(C(=O)C(=O)Nc3ccc4c(c3)CCN4C)CC2)cc1
3. Cc1ccc(CN2C[C@@H](C)N(C(=O)C(=O)Nc3ccc4[nH]ccc4c3)C[C@@H]2C)cc1
4. Cc1ccc(Oc2ccc(C(=O)C(=O)Nc3ccc4c(ccn4C)c3)cc2)cc1
query: Please produce an ascending ranking of these compounds based on microsomal CLint at 1 µM. Note for the reader: the ranking is given by listing the labels in the order requested.
result: 3, 1, 4, 2
(3: 2 µL/min/mg, 1: 17 µL/min/mg, 4: 34 µL/min/mg, 2: 71 µL/min/mg)

A. Cc1ccc(CN2CCN(C(=O)C(=O)Nc3ccc4c(c3)c(F)cn4C)CC2)cc1
B. Cc1ccc(CN2CCN(C(=O)C(=O)Nc3ccc4[nH]c(C)c(C)c4c3)CC2)cc1
query: # return whichever of A and B has the smaller microsomal CLint at 1 µM Pick one and reply with its label.
result: B

---

assay: Plasma concentration in Wistar rat at 10 mg/kg, ip measured after 35 mins by HPLC-MS/MS analysis; format: ADME, organism-based
quantity: concentration at 35 min (µM)

I. O=C(NCc1ccc2[nH]ccc2c1)N1CC(COc2ccc(C(F)(F)F)cc2)C1
II. Cc1ccc(CN2CCN(C(=O)C(=O)Nc3ccc4c(ccn4C)c3)CC2)cc1
query: # return whichever of I and II has the smaller concentration at 35 min Pick one and reply with its label.
result: II
(II: 0.196 µM, I: 8.02 µM)

---

assay: Apparent permeability across apical to basolateral side in vinblastine-treated human Caco-2 cells expressing P-glycoprotein at 1 uM incubated for 120 mins by HPLC analysis; format: ADME
quantity: Papp A→B at 2 h, 1 µM (×10⁻⁶ cm/s)
Form entry: value (×10⁻⁶ cm/s) — number only.

Value of measured Papp A→B at 2 h, 1 µM for the entry O=C(NCc1ccc2[nH]ccc2c1)N1CC(COc2ccc(C(F)(F)F)cc2)C1 : 55

---

assay: Apparent permeability across apical to basolateral side in vinblastine-treated human Caco-2 cells expressing P-glycoprotein at 10 uM incubated for 120 mins by HPLC analysis; assay type: ADME
quantity: Papp A→B at 2 h, 10 µM (×10⁻⁶ cm/s)
Form entry: value (×10⁻⁶ cm/s) — number only.

Value of measured Papp A→B at 2 h, 10 µM for the entry Cc1ccc(CN2CCN(C(=O)C(=O)Nc3ccc4c(ccn4C)c3)CC2)cc1 : 30.7
